// IC50 lookup, one value per entry
- system: recombinant human SAE enzyme (Homo sapiens, UniProt Q9UBT2)
- Sequence (Q9UBT2 1-640): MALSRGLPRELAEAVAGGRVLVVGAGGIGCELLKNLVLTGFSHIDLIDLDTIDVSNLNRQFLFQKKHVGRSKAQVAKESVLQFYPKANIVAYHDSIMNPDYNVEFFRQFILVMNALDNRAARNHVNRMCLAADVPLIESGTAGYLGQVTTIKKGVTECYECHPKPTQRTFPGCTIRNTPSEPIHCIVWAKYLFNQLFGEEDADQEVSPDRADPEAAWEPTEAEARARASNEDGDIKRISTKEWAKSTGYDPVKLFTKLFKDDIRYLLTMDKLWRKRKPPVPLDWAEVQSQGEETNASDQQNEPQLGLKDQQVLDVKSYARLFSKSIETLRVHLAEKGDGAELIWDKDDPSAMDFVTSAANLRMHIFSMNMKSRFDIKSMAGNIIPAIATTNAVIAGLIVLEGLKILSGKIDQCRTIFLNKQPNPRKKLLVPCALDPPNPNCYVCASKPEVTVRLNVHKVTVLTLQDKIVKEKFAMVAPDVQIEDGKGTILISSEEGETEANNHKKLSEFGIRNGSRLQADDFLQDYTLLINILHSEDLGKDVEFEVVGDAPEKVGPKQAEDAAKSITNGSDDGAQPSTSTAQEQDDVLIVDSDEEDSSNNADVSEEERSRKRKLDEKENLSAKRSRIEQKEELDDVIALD
- Sequence (Q9UBE0 1-346 partner): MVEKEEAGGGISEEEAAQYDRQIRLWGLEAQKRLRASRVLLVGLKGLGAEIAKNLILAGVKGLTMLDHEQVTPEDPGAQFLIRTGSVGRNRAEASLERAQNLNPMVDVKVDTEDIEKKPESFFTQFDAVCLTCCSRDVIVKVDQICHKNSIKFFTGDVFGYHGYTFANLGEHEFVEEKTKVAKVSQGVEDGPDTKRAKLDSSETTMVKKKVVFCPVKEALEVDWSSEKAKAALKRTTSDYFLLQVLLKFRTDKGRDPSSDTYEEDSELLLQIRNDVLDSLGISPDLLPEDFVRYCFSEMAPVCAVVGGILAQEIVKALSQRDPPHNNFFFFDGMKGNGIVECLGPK
- assayExplanation: SAE HTRF Enzyme Assay
- conditionSummary: class symbols A-C

[
  {
    "compound": "COC(C)c1cc(C(=O)c2cncnc2N[C@@H]2C[C@H](COS(N)(=O)=O)[C@@H](O)C2)nn1Cc1cccc(Br)c1 (single isomer, unassigned) [Compound I-369b]",
    "IC50": "< 10 nM"
  },
  {
    "compound": "N#Cc1cccc(Cn2ccc(C(=O)c3cncnc3N[C@@H]3C[C@H](COS(N)(=O)=O)[C@@H](O)[C@H]3O)n2)c1 [Compound I-25]",
    "IC50": "< 10 nM"
  },
  {
    "compound": "CC(c1ccccc1)n1ccc(C(=O)c2cncnc2N[C@@H]2C[C@H](COS(N)(=O)=O)[C@@H](O)[C@H]2O)n1 (single isomer, unassigned) [Compound I-361]",
    "IC50": "10 to 100 nM"
  }
]

* * *

- system: recombinant human SAE enzyme (Homo sapiens)
- assayExplanation: SAE HTRF Enzyme Assay
- Assay type: biochemical
- conditionSummary: compound concentration 0.111 μM; read-out: Percent Inhibition

[
  {
    "recordSmiles": "NS(=O)(=O)OC[C@H]1C[C@@H](Nc2ncncc2C(=O)c2ccn(CCc3c[nH]c4ccccc34)n2)[C@H](O)[C@@H]1O",
    "system": "recombinant human SAE enzyme (Homo sapiens)",
    "inhibition at 0.111 µM [%]": 98
  },
  {
    "recordSmiles": "NS(=O)(=O)OC[C@H]1C[C@@H](Nc2ncncc2C(=O)c2ccn(Cc3ccc(C(F)(F)F)s3)n2)C[C@@H]1O",
    "system": "recombinant human SAE enzyme (Homo sapiens)",
    "inhibition at 0.111 µM [%]": 96
  },
  {
    "recordSmiles": "Cc1cn(Cc2cccc(Br)c2)cc1C(=O)c1cncnc1N[C@@H]1C[C@H](COS(N)(=O)=O)[C@@H](O)[C@@H]1F",
    "system": "recombinant human SAE enzyme (Homo sapiens)",
    "inhibition at 0.111 µM [%]": 85
  },
  {
    "recordSmiles": "NS(=O)(=O)OC[C@H]1C[C@@H](Nc2ncncc2C(=O)c2ccn(Cc3ccc(Cl)o3)n2)C[C@@H]1O",
    "system": "recombinant human SAE enzyme (Homo sapiens)",
    "inhibition at 0.111 µM [%]": 99
  },
  {
    "recordSmiles": "NS(=O)(=O)OC[C@H]1C[C@@H](Nc2ncncc2C(=O)c2cc(Cl)n(Cc3cccc(I)c3)c2)[C@@H](F)[C@@H]1O",
    "system": "recombinant human SAE enzyme (Homo sapiens)",
    "inhibition at 0.111 µM [%]": 98
  },
  {
    "recordSmiles": "NS(=O)(=O)OC[C@H]1C[C@@H](Nc2ncncc2C(=O)c2ccn(Cc3cc(F)cc(C(F)(F)F)c3)n2)[C@H](O)[C@@H]1O",
    "system": "recombinant human SAE enzyme (Homo sapiens)",
    "inhibition at 0.111 µM [%]": 97
  }
]

* * *

- system: recombinant human SAE enzyme (Homo sapiens, UniProt Q9UBT2)
- assayExplanation: SAE HTRF Enzyme Assay
- Assay type: biochemical
- conditionSummary: compound concentration 0.111 μM; read-out: Percent Inhibition
// inhibition at 0.111 µM lookup, one value per entry

[
  {
    "compound": "C#Cc1cccc([C@H](C)n2ccc(C(=O)c3cncnc3N[C@@H]3C[C@H](COS(N)(=O)=O)[C@@H](O)C3)n2)c1 (single isomer, unassigned)",
    "system": "recombinant human SAE enzyme (Homo sapiens, UniProt Q9UBT2)",
    "inhibition at 0.111 µM": "99%"
  },
  {
    "compound": "NS(=O)(=O)OC[C@H]1C[C@@H](Nc2ncncc2C(=O)c2ccn(Cc3cc(I)ccc3Cl)n2)C[C@@H]1O",
    "system": "recombinant human SAE enzyme (Homo sapiens, UniProt Q9UBT2)",
    "inhibition at 0.111 µM": "100%"
  },
  {
    "compound": "NS(=O)(=O)OC[C@H]1C[C@@H](Nc2ncncc2C(=O)c2ccn(Cc3cc(F)ccc3F)n2)[C@H](O)[C@@H]1O",
    "system": "recombinant human SAE enzyme (Homo sapiens, UniProt Q9UBT2)",
    "inhibition at 0.111 µM": "98%"
  },
  {
    "compound": "N#Cc1cccc(Cn2ccc(C(=O)c3cncnc3N[C@@H]3C[C@H](COS(N)(=O)=O)[C@@H](O)[C@H]3O)n2)c1",
    "system": "recombinant human SAE enzyme (Homo sapiens, UniProt Q9UBT2)",
    "inhibition at 0.111 µM": "93%"
  },
  {
    "compound": "COC(C)(C)C#CCn1ccc(C(=O)c2cncnc2N[C@@H]2C[C@H](COS(N)(=O)=O)[C@@H](O)[C@@H]2F)c1",
    "system": "recombinant human SAE enzyme (Homo sapiens, UniProt Q9UBT2)",
    "inhibition at 0.111 µM": "68%"
  },
  {
    "compound": "COc1cccc(Cn2ccc(C(=O)c3cncnc3N[C@@H]3C[C@H](COS(N)(=O)=O)[C@@H](O)C3)n2)n1",
    "system": "recombinant human SAE enzyme (Homo sapiens, UniProt Q9UBT2)",
    "inhibition at 0.111 µM": "96%"
  },
  {
    "compound": "NS(=O)(=O)OC[C@H]1C[C@@H](Nc2ncncc2C(=O)c2ccn(CC3=CCCCC3)n2)C[C@@H]1O",
    "system": "recombinant human SAE enzyme (Homo sapiens, UniProt Q9UBT2)",
    "inhibition at 0.111 µM": "97%"
  },
  {
    "compound": "NS(=O)(=O)OC[C@H]1C[C@@H](Nc2ncncc2C(=O)c2ccn(Cc3ccc(C(F)F)o3)n2)C[C@@H]1O",
    "system": "recombinant human SAE enzyme (Homo sapiens, UniProt Q9UBT2)",
    "inhibition at 0.111 µM": "100%"
  },
  {
    "compound": "NS(=O)(=O)OC[C@H]1C[C@@H](Nc2ncncc2C(=O)c2ccn(Cc3ccc(F)c(Cl)c3)n2)[C@H](O)[C@@H]1O",
    "system": "recombinant human SAE enzyme (Homo sapiens, UniProt Q9UBT2)",
    "inhibition at 0.111 µM": "98%"
  },
  {
    "compound": "NS(=O)(=O)OC[C@H]1C[C@@H](Nc2ncncc2C(=O)c2ccn(Cc3cnc(C(F)(F)F)s3)c2)C[C@@H]1O",
    "system": "recombinant human SAE enzyme (Homo sapiens, UniProt Q9UBT2)",
    "inhibition at 0.111 µM": "94%"
  },
  {
    "compound": "NS(=O)(=O)OC[C@H]1C[C@@H](Nc2ccncc2C(=O)c2ccn(Cc3ccccc3)n2)[C@H](O)[C@@H]1O",
    "system": "recombinant human SAE enzyme (Homo sapiens, UniProt Q9UBT2)",
    "inhibition at 0.111 µM": "100%"
  },
  {
    "compound": "CC#CCCn1ccc(C(=O)c2cncnc2N[C@@H]2C[C@H](COS(N)(=O)=O)[C@@H](O)C2)n1",
    "system": "recombinant human SAE enzyme (Homo sapiens, UniProt Q9UBT2)",
    "inhibition at 0.111 µM": "33%"
  },
  {
    "compound": "NS(=O)(=O)OC[C@H]1C[C@@H](Nc2ncncc2C(=O)c2ccn(Cc3cc(C(F)(F)F)ccc3Cl)n2)[C@H](O)[C@@H]1O",
    "system": "recombinant human SAE enzyme (Homo sapiens, UniProt Q9UBT2)",
    "inhibition at 0.111 µM": "99%"
  }
]
